target_of_assay: F508delCFTR (Homo sapiens, UniProt P13569, DEL508-508)
Construct: expressed in transfected cells; host or cells: CFBE41o- human lung-derived epithelial cells (CFBE4lo-F508delCFTR-HRP), doxycycline-inducible
Sequence (P13569 with tags, fused parts or gaps DEL508-508): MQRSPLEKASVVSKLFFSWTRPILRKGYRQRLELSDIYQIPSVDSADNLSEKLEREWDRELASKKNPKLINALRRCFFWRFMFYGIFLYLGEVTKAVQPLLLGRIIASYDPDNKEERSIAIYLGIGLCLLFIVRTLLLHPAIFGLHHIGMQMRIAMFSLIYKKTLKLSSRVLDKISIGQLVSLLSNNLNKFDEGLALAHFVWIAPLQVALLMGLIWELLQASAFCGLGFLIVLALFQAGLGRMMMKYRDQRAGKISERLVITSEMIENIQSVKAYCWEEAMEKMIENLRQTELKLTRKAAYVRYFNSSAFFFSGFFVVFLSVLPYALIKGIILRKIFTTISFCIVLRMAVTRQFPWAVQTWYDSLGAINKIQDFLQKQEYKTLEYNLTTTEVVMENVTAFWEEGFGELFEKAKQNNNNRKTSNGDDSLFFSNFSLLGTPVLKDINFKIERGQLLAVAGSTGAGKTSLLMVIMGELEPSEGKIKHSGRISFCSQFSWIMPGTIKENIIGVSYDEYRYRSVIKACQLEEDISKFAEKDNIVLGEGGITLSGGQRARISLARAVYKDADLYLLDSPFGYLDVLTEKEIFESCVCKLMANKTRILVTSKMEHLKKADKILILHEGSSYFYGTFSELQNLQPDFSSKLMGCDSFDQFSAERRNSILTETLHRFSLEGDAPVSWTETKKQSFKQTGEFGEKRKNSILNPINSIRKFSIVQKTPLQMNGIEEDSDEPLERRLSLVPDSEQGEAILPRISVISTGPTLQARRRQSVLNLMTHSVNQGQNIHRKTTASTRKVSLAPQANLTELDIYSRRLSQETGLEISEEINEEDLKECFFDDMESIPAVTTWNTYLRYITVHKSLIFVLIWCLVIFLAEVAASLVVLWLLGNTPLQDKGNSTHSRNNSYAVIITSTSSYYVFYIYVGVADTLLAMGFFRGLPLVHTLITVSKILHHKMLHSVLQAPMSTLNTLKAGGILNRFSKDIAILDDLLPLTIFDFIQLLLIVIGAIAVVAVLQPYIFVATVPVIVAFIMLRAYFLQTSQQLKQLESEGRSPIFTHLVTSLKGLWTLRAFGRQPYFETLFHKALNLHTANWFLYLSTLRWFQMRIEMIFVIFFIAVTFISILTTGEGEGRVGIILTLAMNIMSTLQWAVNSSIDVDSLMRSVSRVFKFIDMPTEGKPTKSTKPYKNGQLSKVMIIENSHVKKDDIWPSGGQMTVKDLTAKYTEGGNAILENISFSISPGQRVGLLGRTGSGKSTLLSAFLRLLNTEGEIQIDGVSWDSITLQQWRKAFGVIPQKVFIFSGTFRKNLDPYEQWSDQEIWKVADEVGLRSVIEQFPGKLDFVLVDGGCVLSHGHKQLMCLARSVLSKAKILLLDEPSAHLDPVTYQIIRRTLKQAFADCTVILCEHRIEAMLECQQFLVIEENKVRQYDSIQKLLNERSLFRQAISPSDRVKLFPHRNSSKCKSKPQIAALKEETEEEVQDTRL
experiment_summary: Cell Surface Expression-Horse Radish Peroxidase (CSE-HRP) Assay;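 for Maximum % activity (with co-corrector): co-corrector and positive control are both the same reference corrector at 2 µM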
Type: cell-based
test_settings: with co-corrector (2 μM of 3-[(2R,4R)-4-({[1-(2,2-difluoro-1,3-benzodioxol-5-yl)cyclopropyl]carbonyl}amino)-7-methoxy-3,4-dihydro-2H-chromen-2-yl]benzoic acid); maximum at any tested concentration, normalized to on-plate positive control
property_label: Maximum % activity (with co-corrector)

>>> print(df.to_string())
                                   molecule      result
0  COc1ccc(C23CC(C2)C3)cc1CN[C@H]1[C@H](C(C)(C)C)[C@@H](C(=O)O)N(C(=O)C2CCCCC2)[C@H]1c1cccnc1OC  +++ (≥350)
1  CC(C)(C)[C@@H]1[C@@H](NCc2ccccc2OC(F)F)[C@@H](c2ccccc2)N(C(=O)C2CCCCC2)[C@H]1C(=O)O (racemic)  +++ (≥350)

----------
target_of_assay: F508delCFTR (Homo sapiens, UniProt P13569, DEL508-508)
Construct: expressed in transfected cells; host or cells: CFBE41o- human lung-derived epithelial cells (CFBE4lo-F508delCFTR-HRP), doxycycline-inducible
experiment_summary: Cell Surface Expression-Horse Radish Peroxidase (CSE-HRP) Assay
Format: cell-based
test_settings: test compound without co-corrector; read-out: EC50 (without co-corrector)
property_label: EC50

// below: answered compounds
compound	target_of_assay	property_label	result
CC(C)(C)[C@@H]1[C@@H](NCc2cc(S(C)(=O)=O)ccc2O)[C@@H](c2ccccc2)N(C(=O)C2CCCCC2)[C@H]1C(=O)O (racemic)	F508delCFTR (Homo sapiens, UniProt P13569, DEL508-508)	EC50	> 10000 nM
CC(C)(C)[C@H]1[C@H](NCc2ccc(C#N)cc2F)[C@H](c2ccccc2)N(C(=O)C2CCCCC2)[C@@H]1C(=O)O	F508delCFTR (Homo sapiens, UniProt P13569, DEL508-508)	EC50	> 10000 nM
COc1ccc(C(C)(C)C)cc1CN[C@@H]1[C@@H](C(C)(C)C)[C@H](C(=O)O)N(C(=O)C2CCCCC2)[C@@H]1c1ccccc1 (racemic)	F508delCFTR (Homo sapiens, UniProt P13569, DEL508-508)	EC50	< 1000 nM
COc1ncc(C(F)(F)F)cc1CN[C@H]1[C@H](C(C)(C)C)[C@@H](C(=O)O)N(C(=O)C2CC(C)CC(C)C2)[C@H]1c1ccccc1 (some centres unmarked)	F508delCFTR (Homo sapiens, UniProt P13569, DEL508-508)	EC50	< 1000 nM
Cc1cc(C(F)(F)F)cc(N[C@@H]2[C@@H](C(C)(C)C)[C@H](C(=O)O)N(C(=O)C3CCC(F)(F)CC3)[C@@H]2c2ccccc2)n1 (racemic)	F508delCFTR (Homo sapiens, UniProt P13569, DEL508-508)	EC50	> 10000 nM

Q: For the compound shown here, COc1cc(C(F)(F)F)ccc1CN[C@@H]1[C@@H](C(C)(C)C)[C@H](C(=O)O)N(C(=O)OC2CCC2)[C@@H]1c1ccccc1 (racemic) , give the reported EC50.
Result: 1000 to 10000 nM

Q: I am curious: what EC50 value has been reported for `CO[C@@H](C(=O)N1[C@H](c2ccccc2)[C@H](Nc2cc(C(F)(F)F)cc(C)n2)[C@@H](C(C)(C)C)[C@@H]1C(=O)O)c1ccccc1` ?
Result: 1000 to 10000 nM

Data origin: patent US20180099931A1
